Assay: Inhibition of ST2/IL-33 (unknown origin) expressed in HEK-Blue IL-33 cells assessed as decrease in NF-kappaB […]
Format: cell-based
Settings: Homo sapiens
So I've got a bunch of compounds here, and I need their IC50 values.
Numbers only, in µM.

# compound, readout-unit, obs-value
measured = [
    ("CN(C)c1ccc(C2COCCN2Cc2ccc(-c3ccc4c(c3)OCO4)[nH]2)cc1 (centres undefined)", "µM", 10.2),
]

Please go through the list and note IC50 for each compound.
1. Cc1cc(-c2ccc(CN3CCCC3c3cccc(N4CCCC4)c3)[nH]2)ccc1[N+](=O)[O-] (centres undefined)
2. COc1cc(-c2ccc(CN3CCCC3c3ccc(N(C)C)cc3)[nH]2)ccc1[N+](=O)[O-] (centres undefined)
3. COC(=O)c1cc(-c2ccc(CN3CCCC3c3ccc(N(C)C)cc3)[nH]2)ccc1[N+](=O)[O-] (centres undefined)
4. Cc1cc(-c2ccc(CN3CCCC3c3ccc(N(C)C)cc3)[nH]2)ccc1[N+](=O)[O-] (centres undefined)
5. CN(C)c1ccc(C2CCCN2Cc2ccc(-c3ccc([N+](=O)[O-])cc3)[nH]2)cc1 (centres undefined)
6. Cc1cc(-c2ccc(CN3CCCC3c3ccc(N4CCCC4)cc3)[nH]2)ccc1[N+](=O)[O-] (centres undefined)

1: 12.1; 2: 7.15; 3: 6.52; 4: 9.57; 5: 16.2; 6: 11

Please go through the list and note IC50 for each compound.
1. Cc1ccc([N+](=O)[O-])c(-c2ccc(CN3CCCC3c3ccc(N(C)C)cc3)[nH]2)c1 (centres undefined)
2. CN(C)c1ccc(C2CCCCN2Cc2ccc(-c3ccc([N+](=O)[O-])cc3)[nH]2)cc1 (centres undefined)

1. 10.6
2. 8.47

* * *

Test: Metabolic stability in mouse liver microsomes assessed as half life
Assay type: ADME, Microsome
Values of half-life strictly less than 4 min map to criterion met, and values of at least 4 min map to criterion not met.

See these solved cases before continuing.
# molecule, class-label
data = [
    ("CC(C)Oc1cc(-c2ccc(CN3CCCC3c3ccc(N(C)C)cc3)[nH]2)ccc1[N+](=O)[O-] (configuration not stated)", "criterion met"),
    ("Cc1cc(-c2ccc(CN3CCCC3c3ccc(N(C)C)cc3)[nH]2)ccc1[N+](=O)[O-] (configuration not stated)", "criterion met"),
    ("COc1cc(-c2ccc(CN3CCCC3c3ccc(N(C)C)cc3)[nH]2)ccc1[N+](=O)[O-] (configuration not stated)", "criterion not met"),
    ("COC(=O)c1cc(-c2ccc(CN3CCCC3c3ccc(N(C)C)cc3)[nH]2)ccc1[N+](=O)[O-] (configuration not stated)", "criterion met"),
    ("Cc1cc([N+](=O)[O-])ccc1-c1ccc(CN2CCCC2c2ccc(N(C)C)cc2)o1 (configuration not stated)", "criterion met"),
    ("CN(C)c1ccc(C2CCCN2Cc2ccc(-c3ccc([N+](=O)[O-])c(N4CCCC4)c3)[nH]2)cc1 (configuration not stated)", "criterion met"),
]

Shifting focus to the molecule that follows.
Below 4 min on half-life? Entry Cc1cc(-c2ccc(CN3CCCC3c3ccc(N4CCCC4)cc3)[nH]2)ccc1[N+](=O)[O-] (configuration not stated) criterion not met

* * *

Assay: Inhibition of ST2/IL-33 (unknown origin) expressed in HEK-Blue IL-33 cells assessed as decrease in NF-kappaB […]
Assay type: cell-based
Conditions: Homo sapiens
Values of IC50 strictly less than 10 µM map to rule met, and values of at least 10 µM map to rule not met.

See these solved cases before continuing.
# molecule, class-label
rows = [
    ("CN(C)c1ccc(C2SCCN2Cc2ccc(-c3ccc([N+](=O)[O-])cc3)[nH]2)cc1 (stereo unspecified)", "rule not met"),
    ("Cc1cc([N+](=O)[O-])ccc1-c1ccc(CN2CCCC2c2ccc(N(C)C)cc2)o1 (stereo unspecified)", "rule not met"),
    ("Cc1ccc(-c2ccc(CN3CCCC3c3ccc(N(C)C)cc3)[nH]2)c([N+](=O)[O-])c1 (stereo unspecified)", "rule not met"),
    ("CN(C)c1ccc(C2CCCN2Cc2ccc(-c3ccc([N+](=O)[O-])c(N4CCCC4)c3)[nH]2)cc1 (stereo unspecified)", "rule met"),
]

Below 10 µM on IC50? Entry Cc1cc([N+](=O)[O-])ccc1-c1ccc(CN2CCCC2c2ccc(N(C)C)cc2)[nH]1 (stereo unspecified) rule met

From: ChEMBL document CHEMBL6071212
